# System: Escherichia coli TOP10
# experimental.details: shrunken log2 fold change of peptide-encoding DNA abundance (4.5 h post-induction vs induction); higher = less antimicrobial activity (less host growth inhibition)
# run.conditions: time post-induction: 4.5 h; library: site-saturation at positions 5, 18, 19, 20
Lab note: class by shrunken log2 fold change, see class 0 (below -0.2), class 1 (-0.2 to below 0.09), class 2 (0.09 or more)

[
  {
    "biopolymer.sequence": "RRIRGRPPRLPRPRPRPQEIPRP",
    "group": "class 2"
  },
  {
    "biopolymer.sequence": "RRIRYRPPRLPRPRPRPSTHPRP",
    "group": "class 2"
  },
  {
    "biopolymer.sequence": "RRIRHRPPRLPRPRPRPESKPRP",
    "group": "class 1"
  },
  {
    "biopolymer.sequence": "RRIRNRPPRLPRPRPRPILPPRP",
    "group": "class 0"
  },
  {
    "biopolymer.sequence": "RRIRIRPPRLPRPRPRPVRMPRP",
    "group": "class 2"
  },
  {
    "biopolymer.sequence": "RRIRDRPPRLPRPRPRPVKTPRP",
    "group": "class 1"
  },
  {
    "biopolymer.sequence": "RRIRRRPPRLPRPRPRPNRMPRP",
    "group": "class 0"
  },
  {
    "biopolymer.sequence": "RRIRCRPPRLPRPRPRPGHHPRP",
    "group": "class 0"
  },
  {
    "biopolymer.sequence": "RRIRWRPPRLPRPRPRPVLFPRP",
    "group": "class 1"
  },
  {
    "biopolymer.sequence": "RRIRDRPPRLPRPRPRPLPHPRP",
    "group": "class 1"
  },
  {
    "biopolymer.sequence": "RRIRKRPPRLPRPRPRPWVIPRP",
    "group": "class 1"
  },
  {
    "biopolymer.sequence": "RRIRDRPPRLPRPRPRPAIPPRP",
    "group": "class 0"
  },
  {
    "biopolymer.sequence": "RRIRHRPPRLPRPRPRPNYTPRP",
    "group": "class 0"
  },
  {
    "biopolymer.sequence": "RRIRKRPPRLPRPRPRPYPNPRP",
    "group": "class 1"
  },
  {
    "biopolymer.sequence": "RRIRLRPPRLPRPRPRPKDEPRP",
    "group": "class 2"
  },
  {
    "biopolymer.sequence": "RRIRVRPPRLPRPRPRPMTDPRP",
    "group": "class 2"
  },
  {
    "biopolymer.sequence": "RRIRTRPPRLPRPRPRPLAPPRP",
    "group": "class 2"
  },
  {
    "biopolymer.sequence": "RRIRNRPPRLPRPRPRPFFYPRP",
    "group": "class 0"
  },
  {
    "biopolymer.sequence": "RRIRKRPPRLPRPRPRPNAVPRP",
    "group": "class 2"
  },
  {
    "biopolymer.sequence": "RRIRQRPPRLPRPRPRPNIHPRP",
    "group": "class 0"
  },
  {
    "biopolymer.sequence": "RRIRRRPPRLPRPRPRPMNEPRP",
    "group": "class 1"
  },
  {
    "biopolymer.sequence": "RRIRDRPPRLPRPRPRPAQWPRP",
    "group": "class 2"
  },
  {
    "biopolymer.sequence": "RRIRTRPPRLPRPRPRPRTIPRP",
    "group": "class 1"
  },
  {
    "biopolymer.sequence": "RRIRIRPPRLPRPRPRPSGQPRP",
    "group": "class 1"
  },
  {
    "biopolymer.sequence": "RRIRNRPPRLPRPRPRPCEHPRP",
    "group": "class 1"
  },
  {
    "biopolymer.sequence": "RRIRERPPRLPRPRPRPPARPRP",
    "group": "class 2"
  },
  {
    "biopolymer.sequence": "RRIRARPPRLPRPRPRPCCFPRP",
    "group": "class 2"
  },
  {
    "biopolymer.sequence": "RRIRNRPPRLPRPRPRPSGTPRP",
    "group": "class 0"
  },
  {
    "biopolymer.sequence": "RRIRIRPPRLPRPRPRPGECPRP",
    "group": "class 1"
  },
  {
    "biopolymer.sequence": "RRIRWRPPRLPRPRPRPHWKPRP",
    "group": "class 1"
  },
  {
    "biopolymer.sequence": "RRIRSRPPRLPRPRPRPVIYPRP",
    "group": "class 0"
  },
  {
    "biopolymer.sequence": "RRIRYRPPRLPRPRPRPDDEPRP",
    "group": "class 1"
  },
  {
    "biopolymer.sequence": "RRIRGRPPRLPRPRPRPGKIPRP",
    "group": "class 2"
  },
  {
    "biopolymer.sequence": "RRIRPRPPRLPRPRPRPQITPRP",
    "group": "class 0"
  },
  {
    "biopolymer.sequence": "RRIRWRPPRLPRPRPRPRAVPRP",
    "group": "class 2"
  },
  {
    "biopolymer.sequence": "RRIRRRPPRLPRPRPRPMTAPRP",
    "group": "class 1"
  },
  {
    "biopolymer.sequence": "RRIRERPPRLPRPRPRPYPIPRP",
    "group": "class 2"
  },
  {
    "biopolymer.sequence": "RRIRLRPPRLPRPRPRPSAPPRP",
    "group": "class 1"
  },
  {
    "biopolymer.sequence": "RRIRGRPPRLPRPRPRPALEPRP",
    "group": "class 2"
  },
  {
    "biopolymer.sequence": "RRIRKRPPRLPRPRPRPMNMPRP",
    "group": "class 1"
  },
  {
    "biopolymer.sequence": "RRIRFRPPRLPRPRPRPMFIPRP",
    "group": "class 0"
  },
  {
    "biopolymer.sequence": "RRIRMRPPRLPRPRPRPTYWPRP",
    "group": "class 2"
  },
  {
    "biopolymer.sequence": "RRIRQRPPRLPRPRPRPEGLPRP",
    "group": "class 1"
  },
  {
    "biopolymer.sequence": "RRIRMRPPRLPRPRPRPQTKPRP",
    "group": "class 2"
  },
  {
    "biopolymer.sequence": "RRIRRRPPRLPRPRPRPMFCPRP",
    "group": "class 2"
  },
  {
    "biopolymer.sequence": "RRIRERPPRLPRPRPRPFHWPRP",
    "group": "class 1"
  },
  {
    "biopolymer.sequence": "RRIRPRPPRLPRPRPRPFNVPRP",
    "group": "class 1"
  },
  {
    "biopolymer.sequence": "RRIRFRPPRLPRPRPRPTWRPRP",
    "group": "class 2"
  },
  {
    "biopolymer.sequence": "RRIRLRPPRLPRPRPRPLMIPRP",
    "group": "class 0"
  },
  {
    "biopolymer.sequence": "RRIRNRPPRLPRPRPRPAVQPRP",
    "group": "class 2"
  },
  {
    "biopolymer.sequence": "RRIRLRPPRLPRPRPRPQWCPRP",
    "group": "class 0"
  },
  {
    "biopolymer.sequence": "RRIRQRPPRLPRPRPRPIMWPRP",
    "group": "class 1"
  },
  {
    "biopolymer.sequence": "RRIRTRPPRLPRPRPRPYFTPRP",
    "group": "class 0"
  },
  {
    "biopolymer.sequence": "RRIRDRPPRLPRPRPRPCYMPRP",
    "group": "class 1"
  },
  {
    "biopolymer.sequence": "RRIRCRPPRLPRPRPRPIVSPRP",
    "group": "class 0"
  },
  {
    "biopolymer.sequence": "RRIRDRPPRLPRPRPRPKYTPRP",
    "group": "class 0"
  },
  {
    "biopolymer.sequence": "RRIRLRPPRLPRPRPRPRGKPRP",
    "group": "class 1"
  },
  {
    "biopolymer.sequence": "RRIRLRPPRLPRPRPRPSTNPRP",
    "group": "class 0"
  },
  {
    "biopolymer.sequence": "RRIRLRPPRLPRPRPRPPIYPRP",
    "group": "class 1"
  },
  {
    "biopolymer.sequence": "RRIRKRPPRLPRPRPRPHTAPRP",
    "group": "class 2"
  }
]

* * *

# System: Escherichia coli TOP10;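 note: peptides expressed intracellularly from a pBAD plasmid library in pooled LB shake-flask culture, induced with 0.3% L-arabinose, DNA abundance read by NGS, three biological replicates, DESeq2 with apeglm shrinkage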
# experimental.details: shrunken log2 fold change of peptide-encoding DNA abundance (4.5 h post-induction vs induction); higher = less antimicrobial activity (less host growth inhibition)
# run.conditions: time post-induction: 4.5 h; library: site-saturation at positions 5, 18, 19, 20
Use YES when the recorded shrunken log2 fold change is no lower than -0.1; use NO when it is lower.

[
  {
    "biopolymer.sequence": "RRIRNRPPRLPRPRPRPMHMPRP",
    "group": "YES"
  },
  {
    "biopolymer.sequence": "RRIRRRPPRLPRPRPRPPIYPRP",
    "group": "YES"
  },
  {
    "biopolymer.sequence": "RRIRSRPPRLPRPRPRPKERPRP",
    "group": "YES"
  },
  {
    "biopolymer.sequence": "RRIRFRPPRLPRPRPRPYGWPRP",
    "group": "YES"
  },
  {
    "biopolymer.sequence": "RRIRERPPRLPRPRPRPQSTPRP",
    "group": "NO"
  },
  {
    "biopolymer.sequence": "RRIRGRPPRLPRPRPRPHRPPRP",
    "group": "YES"
  },
  {
    "biopolymer.sequence": "RRIRGRPPRLPRPRPRPNCPPRP",
    "group": "NO"
  },
  {
    "biopolymer.sequence": "RRIRERPPRLPRPRPRPPYDPRP",
    "group": "NO"
  },
  {
    "biopolymer.sequence": "RRIRVRPPRLPRPRPRPTFFPRP",
    "group": "YES"
  },
  {
    "biopolymer.sequence": "RRIRERPPRLPRPRPRPDYSPRP",
    "group": "NO"
  },
  {
    "biopolymer.sequence": "RRIRWRPPRLPRPRPRPIHRPRP",
    "group": "YES"
  },
  {
    "biopolymer.sequence": "RRIRSRPPRLPRPRPRPCQQPRP",
    "group": "NO"
  },
  {
    "biopolymer.sequence": "RRIRHRPPRLPRPRPRPRVNPRP",
    "group": "YES"
  },
  {
    "biopolymer.sequence": "RRIRGRPPRLPRPRPRPAFMPRP",
    "group": "YES"
  },
  {
    "biopolymer.sequence": "RRIRQRPPRLPRPRPRPSFVPRP",
    "group": "NO"
  }
]
